Exercise: for every item that follows, state its recorded TGI.
system: HS 578T breast; test: NCI tumour cell line growth inhibition, 48 h

The examples below pair each entry with its known result.
[[record]]
compound = "COc1cc2c(cc1OCCCCN1CCN(CCCCOc3cc4c(cc3OC)C(=O)N3CCC[C@H]3C=N4)CC1)N=C[C@@H]1CCCN1C2=O"
reported_value = "> 100 µM"

[[record]]
compound = "COC1C(O)C(C)OC(O[C@@H]2C[C@H]3CC[C@@H]4[C@H](CC[C@]5(C)[C@@H](C6=CC(=O)OC6)CC[C@]45O)[C@@]3(C)[C@H](O)C2)C1O (stereo partly drawn)"
reported_value = "> 100 µM"


Quick one: TGI of Clc1ccc(/C=C/c2nc(Cl)c(-c3ccc(Cl)cc3)c(Cl)n2)cc1 ?
> 100 µM
